Where do the numbers come from? From patent US10202593B2.

# Tested on: LPESG (Abz-LPESGK(Dnp)-CONH2)
# PROTOCOL DESCRIPTION: In vitro sortase kinetics HPLC assay, LPESG substrate
# Type: biochemical
# RUN PARAMETERS: ratio of kcat/Km between 4S (LPESG) and wt (LPETG) substrates
MEASUREMENT LABEL: specificity (relative cat. Efficiency, fold)

molecule="4S.6A: 5mut + N98D A104V A118S F122A K134G I182V E189V (protein) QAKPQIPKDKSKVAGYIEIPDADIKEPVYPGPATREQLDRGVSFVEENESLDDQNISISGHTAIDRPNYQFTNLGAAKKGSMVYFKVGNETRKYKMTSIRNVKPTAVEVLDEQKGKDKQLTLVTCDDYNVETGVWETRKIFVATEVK" result_value=11
molecule="eSrtA(4S-4): 5mut + A104V A118T F122S I182V (protein) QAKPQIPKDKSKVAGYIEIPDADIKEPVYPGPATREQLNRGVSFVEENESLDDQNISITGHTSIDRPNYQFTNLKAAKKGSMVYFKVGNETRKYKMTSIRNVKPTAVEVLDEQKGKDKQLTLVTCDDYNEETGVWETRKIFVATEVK" result_value=1.823
molecule="eSrtA(4S-5): 5mut + N98D A104V A118T F122A K134R I182V (protein) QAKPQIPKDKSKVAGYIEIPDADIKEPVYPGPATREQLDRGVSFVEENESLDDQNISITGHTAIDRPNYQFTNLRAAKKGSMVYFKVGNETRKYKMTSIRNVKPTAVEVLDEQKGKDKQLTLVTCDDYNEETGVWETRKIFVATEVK" result_value=9.999
molecule="4S.6B: 5mut + N98D A104V A118S F122A K134P I182V E189P (protein) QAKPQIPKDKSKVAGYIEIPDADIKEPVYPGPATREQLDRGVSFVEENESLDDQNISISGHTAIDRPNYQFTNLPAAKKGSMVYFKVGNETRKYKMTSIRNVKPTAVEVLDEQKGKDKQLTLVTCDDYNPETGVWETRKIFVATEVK" result_value=0.9102
